This listing pairs binders with measured EC50, HEK-Blue IL18R reporter (SEAP).
- target-of-assay: T1, IL-18 receptor on HEK-Blue IL18R reporter cells (UniProt Q13478 19-541; O95256 20-599, limits assumed)
- T1 sequence (looked up) 1: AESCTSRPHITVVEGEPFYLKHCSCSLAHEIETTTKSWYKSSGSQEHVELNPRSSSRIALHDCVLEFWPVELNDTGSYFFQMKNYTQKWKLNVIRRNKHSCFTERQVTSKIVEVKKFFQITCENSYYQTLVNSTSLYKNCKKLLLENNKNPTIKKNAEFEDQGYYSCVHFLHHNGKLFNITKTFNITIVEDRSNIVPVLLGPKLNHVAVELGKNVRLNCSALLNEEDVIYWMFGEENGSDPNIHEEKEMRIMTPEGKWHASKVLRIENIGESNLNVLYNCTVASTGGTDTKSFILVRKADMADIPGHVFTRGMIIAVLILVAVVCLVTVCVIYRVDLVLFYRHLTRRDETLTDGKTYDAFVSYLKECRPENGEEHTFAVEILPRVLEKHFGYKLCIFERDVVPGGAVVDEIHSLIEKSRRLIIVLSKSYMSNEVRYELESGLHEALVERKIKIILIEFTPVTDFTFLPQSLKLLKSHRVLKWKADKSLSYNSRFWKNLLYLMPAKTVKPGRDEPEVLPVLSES
- T1 sequence (looked up) 2: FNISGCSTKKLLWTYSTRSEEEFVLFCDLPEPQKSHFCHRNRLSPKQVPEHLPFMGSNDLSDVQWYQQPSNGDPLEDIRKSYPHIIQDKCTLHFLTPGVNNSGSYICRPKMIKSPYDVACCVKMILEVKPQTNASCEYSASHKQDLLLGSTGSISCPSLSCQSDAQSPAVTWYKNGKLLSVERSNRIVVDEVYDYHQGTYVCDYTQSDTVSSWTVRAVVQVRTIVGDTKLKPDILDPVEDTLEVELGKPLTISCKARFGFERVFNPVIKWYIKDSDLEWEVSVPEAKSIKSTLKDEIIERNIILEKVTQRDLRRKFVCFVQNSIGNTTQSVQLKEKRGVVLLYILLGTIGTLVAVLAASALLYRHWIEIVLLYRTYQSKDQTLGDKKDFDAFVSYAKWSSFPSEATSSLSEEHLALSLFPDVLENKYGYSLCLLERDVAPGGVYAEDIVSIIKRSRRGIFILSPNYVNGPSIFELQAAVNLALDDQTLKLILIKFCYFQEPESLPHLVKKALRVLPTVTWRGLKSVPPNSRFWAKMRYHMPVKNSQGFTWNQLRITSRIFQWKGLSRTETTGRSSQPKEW
- experimental-details: cell-based or functional assay

{"binder": "modified IL-18 polypeptide SEQ ID NO: 243 (Y1M, E6K, V11I, C38A, K53A, T63A, C76A, C127A) (ligand) MFGKLKSKLSIIRNLNDQVLFIDQGNRPLFEDMTDSDARDNAPRTIFIISMYADSQPRGMAVAISVKCEKISTLSAENKIISFKEMNPPDNIKDTKSDIIFFQRSVPGHDNKMQFESSSYEGYFLAAEKERDLFKLILKKEDELGDRSIMFTVQNED", "EC50, HEK-Blue IL18R reporter (SEAP)": "0.02 nM"}
{"binder": "modified IL-18 polypeptide SEQ ID NO: 238 (E6K, V11I, C38A, K53A, T63A, C76A, C127A, V153Y) (ligand) YFGKLKSKLSIIRNLNDQVLFIDQGNRPLFEDMTDSDARDNAPRTIFIISMYADSQPRGMAVAISVKCEKISTLSAENKIISFKEMNPPDNIKDTKSDIIFFQRSVPGHDNKMQFESSSYEGYFLAAEKERDLFKLILKKEDELGDRSIMFTYQNED", "EC50, HEK-Blue IL18R reporter (SEAP)": "0.08 nM"}
{"binder": "modified IL-18 polypeptide SEQ ID NO: 239 (E6K, V11I, C38A, M51G, K53A, T63A, C76A, C127A) (ligand) YFGKLKSKLSIIRNLNDQVLFIDQGNRPLFEDMTDSDARDNAPRTIFIISGYADSQPRGMAVAISVKCEKISTLSAENKIISFKEMNPPDNIKDTKSDIIFFQRSVPGHDNKMQFESSSYEGYFLAAEKERDLFKLILKKEDELGDRSIMFTVQNED", "EC50, HEK-Blue IL18R reporter (SEAP)": "0.1 nM"}
{"binder": "modified IL-18 polypeptide SEQ ID NO: 210 (V11I, E31A, C38A, K53A, C76A, C127A) (ligand) YFGKLESKLSIIRNLNDQVLFIDQGNRPLFADMTDSDARDNAPRTIFIISMYADSQPRGMAVTISVKCEKISTLSAENKIISFKEMNPPDNIKDTKSDIIFFQRSVPGHDNKMQFESSSYEGYFLAAEKERDLFKLILKKEDELGDRSIMFTVQNED", "EC50, HEK-Blue IL18R reporter (SEAP)": "6.6 nM"}
{"binder": "modified IL-18 polypeptide SEQ ID NO: 229 (V11I, C38A, C76A, S105K, C127A) (ligand) YFGKLESKLSIIRNLNDQVLFIDQGNRPLFEDMTDSDARDNAPRTIFIISMYKDSQPRGMAVTISVKCEKISTLSAENKIISFKEMNPPDNIKDTKSDIIFFQRKVPGHDNKMQFESSSYEGYFLAAEKERDLFKLILKKEDELGDRSIMFTVQNED", "EC50, HEK-Blue IL18R reporter (SEAP)": "7.73 nM"}
{"binder": "modified IL-18 polypeptide SEQ ID NO: 59 (E6K, C38A, K53A) (ligand) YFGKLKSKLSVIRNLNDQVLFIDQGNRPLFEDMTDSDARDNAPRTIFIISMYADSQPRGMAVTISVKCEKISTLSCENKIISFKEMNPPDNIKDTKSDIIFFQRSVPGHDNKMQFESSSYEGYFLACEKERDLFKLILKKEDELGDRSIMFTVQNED", "EC50, HEK-Blue IL18R reporter (SEAP)": "0.268 nM"}
